Target Entity: T1, native human ApoC3 (human, UniProt P02656 21-99)
T1 construct: also called nhuApoC3; native huApoC3
T1 sequence (P02656 21-99): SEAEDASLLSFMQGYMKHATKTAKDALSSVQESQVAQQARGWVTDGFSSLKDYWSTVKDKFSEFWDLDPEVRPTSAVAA
Test Protocol: SPR, ApoC3 over captured IgG1
One threshold, 2, splits the recorded KD (nM) pH5.5/pH7.4 values: lower ones are 1, equal or higher ones are 0.

A selection of reference data follows.
Binder	Assigned Class
mAb3 (antibody, IgG1, V domains shown, Produced as full length IgG1 (kappa) in ExpiCHO-S cells; also called humanized anti-ApoC3 antibody mAb3) VH: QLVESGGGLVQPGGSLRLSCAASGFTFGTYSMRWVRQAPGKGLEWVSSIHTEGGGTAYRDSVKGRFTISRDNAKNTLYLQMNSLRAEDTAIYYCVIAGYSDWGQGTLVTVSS VL: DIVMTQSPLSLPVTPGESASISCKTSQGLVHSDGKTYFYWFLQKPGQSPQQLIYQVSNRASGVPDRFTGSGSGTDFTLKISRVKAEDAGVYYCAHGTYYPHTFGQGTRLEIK	1
mAb15 (antibody, IgG1, V domains shown, Produced as full length IgG1 (kappa) in ExpiCHO-S cells; also called humanized anti-ApoC3 antibody mAb15) VH: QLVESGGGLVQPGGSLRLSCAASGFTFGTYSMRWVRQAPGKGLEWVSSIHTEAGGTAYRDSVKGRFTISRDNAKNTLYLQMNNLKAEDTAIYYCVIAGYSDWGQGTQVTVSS VL: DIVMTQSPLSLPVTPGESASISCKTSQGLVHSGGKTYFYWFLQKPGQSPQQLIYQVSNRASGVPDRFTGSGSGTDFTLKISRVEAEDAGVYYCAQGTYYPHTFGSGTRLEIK	0
mAb5 (antibody, IgG1, V domains shown, Produced as full length IgG1 (kappa) in ExpiCHO-S cells; also called humanized anti-ApoC3 antibody mAb5) VH: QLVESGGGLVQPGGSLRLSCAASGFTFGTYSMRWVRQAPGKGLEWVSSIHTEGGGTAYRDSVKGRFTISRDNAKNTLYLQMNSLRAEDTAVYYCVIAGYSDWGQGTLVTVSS VL: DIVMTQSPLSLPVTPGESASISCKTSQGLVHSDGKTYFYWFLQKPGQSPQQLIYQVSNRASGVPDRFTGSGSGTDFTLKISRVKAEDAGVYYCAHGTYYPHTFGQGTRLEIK	0
mAb10 (antibody, IgG1, V domains shown, Produced as full length IgG1 (kappa) in ExpiCHO-S cells; also called humanized anti-ApoC3 antibody mAb10) VH: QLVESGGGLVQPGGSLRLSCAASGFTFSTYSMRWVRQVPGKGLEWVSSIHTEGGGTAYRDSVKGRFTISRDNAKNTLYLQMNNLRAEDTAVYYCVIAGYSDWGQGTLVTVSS VL: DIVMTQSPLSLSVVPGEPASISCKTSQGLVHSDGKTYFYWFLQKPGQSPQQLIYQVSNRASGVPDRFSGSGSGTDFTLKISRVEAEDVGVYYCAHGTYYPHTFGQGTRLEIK	1
mAb12 (antibody, IgG1, V domains shown, Produced as full length IgG1 (kappa) in ExpiCHO-S cells; also called humanized anti-ApoC3 antibody mAb12) VH: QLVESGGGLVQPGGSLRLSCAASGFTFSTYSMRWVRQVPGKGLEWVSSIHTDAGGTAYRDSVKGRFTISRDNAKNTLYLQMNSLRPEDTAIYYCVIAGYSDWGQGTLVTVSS VL: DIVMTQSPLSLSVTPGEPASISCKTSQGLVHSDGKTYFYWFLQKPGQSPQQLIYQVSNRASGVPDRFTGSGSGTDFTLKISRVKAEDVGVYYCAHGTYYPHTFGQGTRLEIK	1

Prompt: hey, is KD (nM) pH5.5/pH7.4 for mAb9 (antibody, IgG1, V domains shown, Produced as full length IgG1 (kappa) in ExpiCHO-S cells; also called humanized anti-ApoC3 antibody mAb9) VH: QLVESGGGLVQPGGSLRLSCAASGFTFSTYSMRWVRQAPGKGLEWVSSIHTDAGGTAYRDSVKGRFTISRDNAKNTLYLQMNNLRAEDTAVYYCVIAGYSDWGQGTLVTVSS VL: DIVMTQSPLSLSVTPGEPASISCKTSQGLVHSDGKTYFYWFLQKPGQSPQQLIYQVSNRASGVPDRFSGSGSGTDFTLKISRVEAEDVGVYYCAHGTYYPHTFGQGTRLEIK lower than 2 or not?
Response: 0

Prompt: hey, is KD (nM) pH5.5/pH7.4 for mAb1 (antibody, IgG1, V domains shown, Produced as full length IgG1 (kappa) in ExpiCHO-S cells; also called humanized anti-ApoC3 antibody mAb1) VH: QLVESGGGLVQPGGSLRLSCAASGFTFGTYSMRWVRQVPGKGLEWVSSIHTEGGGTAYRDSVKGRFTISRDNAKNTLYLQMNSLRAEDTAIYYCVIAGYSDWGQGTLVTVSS VL: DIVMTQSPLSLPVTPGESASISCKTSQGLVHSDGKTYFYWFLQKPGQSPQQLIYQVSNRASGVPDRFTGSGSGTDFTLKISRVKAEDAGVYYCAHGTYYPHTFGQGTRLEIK lower than 2 or not?
Response: 0

Prompt: hey, is KD (nM) pH5.5/pH7.4 for mAb4 (antibody, IgG1, V domains shown, Produced as full length IgG1 (kappa) in ExpiCHO-S cells; also called humanized anti-ApoC3 antibody mAb4) VH: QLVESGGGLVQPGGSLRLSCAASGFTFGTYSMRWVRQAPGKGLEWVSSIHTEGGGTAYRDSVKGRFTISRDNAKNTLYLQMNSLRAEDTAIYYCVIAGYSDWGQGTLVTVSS VL: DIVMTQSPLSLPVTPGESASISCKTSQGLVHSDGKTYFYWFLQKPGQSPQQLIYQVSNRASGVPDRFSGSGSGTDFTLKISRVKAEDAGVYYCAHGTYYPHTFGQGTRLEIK lower than 2 or not?
Response: 0

Prompt: hey, is KD (nM) pH5.5/pH7.4 for mAb17 (antibody, IgG1, V domains shown, Produced as full length IgG1 (kappa) in ExpiCHO-S cells; also called humanized anti-ApoC3 antibody mAb17) VH: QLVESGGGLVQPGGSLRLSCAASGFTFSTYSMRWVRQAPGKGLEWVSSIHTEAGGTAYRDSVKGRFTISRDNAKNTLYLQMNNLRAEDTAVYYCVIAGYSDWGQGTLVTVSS VL: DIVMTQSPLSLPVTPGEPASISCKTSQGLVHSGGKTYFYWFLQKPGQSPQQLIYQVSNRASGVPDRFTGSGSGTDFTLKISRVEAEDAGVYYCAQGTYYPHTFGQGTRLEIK lower than 2 or not?
Response: 0

Prompt: hey, is KD (nM) pH5.5/pH7.4 for mAb8 (antibody, IgG1, V domains shown, Produced as full length IgG1 (kappa) in ExpiCHO-S cells; also called humanized anti-ApoC3 antibody mAb8) VH: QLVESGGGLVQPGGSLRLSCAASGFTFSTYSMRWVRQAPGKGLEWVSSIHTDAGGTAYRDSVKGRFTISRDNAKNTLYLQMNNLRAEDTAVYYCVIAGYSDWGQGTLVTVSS VL: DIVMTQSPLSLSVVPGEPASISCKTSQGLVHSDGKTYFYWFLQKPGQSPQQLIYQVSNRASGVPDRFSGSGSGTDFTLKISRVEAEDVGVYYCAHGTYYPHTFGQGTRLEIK lower than 2 or not?
Response: 1
